- Read-out: Monokine induced gamma interferon (MIG), CXCL9 (gene 4283)
- protocol-summary: BSK_SAg_MIG: BioMAP Diversity Plus: SAg Assay for Monokine induced gamma interferon (MIG) Biomarker Activity (AID 2283092)
- test-settings: primary human HUVEC with PBMC; actives raise or lower the signal
Activity calls are given as the source filed them. Rule for the calls: active = hit-call score of the fitted dose curve at least 0.9, where 1 is the maximum; inactive = score below 0.9.
Parameter call: string, one of yes = active, no = inactive

// below: answered compounds
[[record]]
entry_smiles = "C=CC(N)=O"
class_name = "no"

[[record]]
entry_smiles = "CCOC(=O)C(O)(c1ccc(Cl)cc1)c1ccc(Cl)cc1"
class_name = "yes"

[[record]]
entry_smiles = "CO/C=C(/C(=O)OC)c1ccccc1COc1cccc(C(F)(F)F)n1"
class_name = "yes"

[[record]]
entry_smiles = "C[C@]12CCC(=O)C=C1CC[C@@H]1[C@@H]2CC[C@]2(C)C(=O)CC[C@@H]12"
class_name = "no"

[[record]]
entry_smiles = "Cc1ccccc1O"
class_name = "no"

[[record]]
entry_smiles = "ClC(Cl)=C(c1ccc(Cl)cc1)c1ccc(Cl)cc1"
class_name = "yes"


Ask | Returns: the outcome recorded for Oc1ccc(Cl)cc1Cl in this assay.
Reply | no

* * *

- Read-out: Macrophage colony-stimulating factor (MCSF), CSF1 (gene 1435)
- protocol-summary: BSK_LPS_MCSF: BioMAP Diversity Plus: LPS Assay for Macrophage colony-stimulating factor (MCSF) Biomarker Activity (AID 2283083)
- test-settings: primary human HUVEC with PBMC; actives raise or lower the signal
The source made the active and inactive calls. How the source made its calls: active means hit-call score of the fitted dose curve at least 0.9, where 1 is the maximum; inactive means score below 0.9.
Parameter call: string, one of active, inactive

[[record]]
entry_smiles = "C=CC(N)=O"
class_name = "inactive"


Now let's try a different one.
Ask | Returns: the outcome recorded for Cc1cccc([N+](=O)[O-])c1 in this assay.
Reply | inactive

* * *

- protocol-summary: CCTE_Shafer_MEA_acute_LDH: CCTE's Lactate Dehydrogenase Assay for Cytotoxicity in the Neural Acute Assay, Shafer Lab (AID 2284086);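 note: active means LDH release rises above DMSO vehicle level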
Inconclusive results are not listed. Calls of active or inactive are those of the source. Rule for the calls: active = hit-call score of the fitted dose curve at least 0.9, where 1 is the maximum; inconclusive = response in the unintended direction; inactive = score below 0.9.
readout-type: outcome

Field: example entries. Status: answers known.
[[record]]
compound = "COc1ccc(O)c(C(C)(C)C)c1"
test_result = "inactive"

[[record]]
compound = "CO/C=C(/C(=O)OC)c1ccccc1COc1cccc(C(F)(F)F)n1"
test_result = "inactive"

[[record]]
compound = "C=CC(N)=O"
test_result = "inactive"

[[record]]
compound = "CC(C)C(=O)OCC(C)(C)C(OC(=O)C(C)C)C(C)C (stereo not drawn)"
test_result = "inactive"

[[record]]
compound = "CCC(C)(c1ccc(O)cc1)c1ccc(O)cc1"
test_result = "inactive"


Ask | Give its outcome value. Item: CN(C)CCO
Reply | inactive

Ask | Give its outcome value. Item: O=C(O)C(F)(F)C(F)(F)C(F)(F)C(F)(F)C(F)(F)F
Reply | inactive

Ask | Give its outcome value. Item: ClC1=C(Cl)[C@]2(Cl)[C@@H]3[C@@H](Cl)[C@H]4O[C@H]4[C@@H]3C1(Cl)C2(Cl)Cl
Reply | inactive

Ask | Give its outcome value. Item: CCCCCCCCCc1ccc(O)cc1
Reply | inactive

Ask | Give its outcome value. Item: ClC1=C(Cl)[C@]2(Cl)[C@@H]3[C@@H]4C[C@@H]([C@H]5O[C@@H]45)[C@@H]3[C@@]1(Cl)C2(Cl)Cl
Reply | inactive

Ask | Give its outcome value. Item: CCCN(CCC)N=O
Reply | inactive

Ask | Give its outcome value. Item: CCC(C)c1cc([N+](=O)[O-])cc([N+](=O)[O-])c1O (stereo not drawn)
Reply | inactive

Ask | Give its outcome value. Item: CC#Cc1cc(C)nc(Nc2ccccc2)n1
Reply | inactive

* * *

- Read-out: Interleukin-6 (IL6), IL6 (gene 3569)
- protocol-summary: BSK_CASM3C_IL6: BioMAP Diversity Plus: CASM3C Assay for Interleukin-6 (IL6) Biomarker Activity for (AID 2283040)
- test-settings: primary human coronary artery smooth muscle cells; actives raise or lower the signal
Active and inactive are the calls of the source. How the source made its calls: active means hit-call score of the fitted dose curve at least 0.9, where 1 is the maximum; inactive means score below 0.9.
Parameter call: string, one of active, inactive

// below: answered molecules
[[record]]
molecule = "CCCCCCCCCC[N+](C)(C)CCCCCCCCCC"
class_name = "active"

[[record]]
molecule = "C[C@]12CCC(=O)C=C1CC[C@@H]1[C@@H]2CC[C@@]2(C)[C@H]1CC[C@]2(C)O"
class_name = "inactive"

[[record]]
molecule = "CC(C)C(=O)OCC(C)(C)C(OC(=O)C(C)C)C(C)C (centres undefined)"
class_name = "inactive"

[[record]]
molecule = "Cc1ccccc1[N+](=O)[O-]"
class_name = "inactive"

[[record]]
molecule = "CCOP(=S)(OCC)SCSC(C)(C)C"
class_name = "inactive"

[[record]]
molecule = "Oc1ccc(Cl)cc1Cl"
class_name = "inactive"


Ask | Returns: the outcome recorded for CCOC(=O)C(O)(c1ccc(Cl)cc1)c1ccc(Cl)cc1 in this assay.
Reply | inactive

Ask | Returns: the outcome recorded for CCCN(CCC)N=O in this assay.
Reply | inactive

* * *

- protocol-summary: Tanguay_ZF_120hpf_CFIN_legacy: (Legacy) Oregon State University Tanguay Lab 120 Hour Post-fertilization zebrafish Assay for Caudal Fin Malformation (AID 2283649)
Inconclusive results are not listed. Calls of active or inactive are those of the source. Rule for the calls: active = hit-call score of the fitted dose curve at least 0.9, where 1 is the maximum; inconclusive = response in the unintended direction; inactive = score below 0.9.
Parameter call: string, one of active, inactive

// below: answered compounds
[[record]]
entry_smiles = "O=C(NC(=O)c1c(F)cccc1F)Nc1cc(Cl)c(OC(F)(F)C(F)F)c(Cl)c1"
class_name = "inactive"

[[record]]
entry_smiles = "CN(C)c1nc(=O)n(C2CCCCC2)c(=O)n1C"
class_name = "inactive"


Ask | Returns: the outcome recorded for Oc1c(Cl)c(Cl)c(Cl)c(Cl)c1Cl in this assay.
Reply | inactive

Ask | Returns: the outcome recorded for CCCCCCCCCc1ccc(O)cc1 in this assay.
Reply | inactive

Ask | Returns: the outcome recorded for CCSC(=O)N(CC)C1CCCCC1 in this assay.
Reply | inactive

Ask | Returns: the outcome recorded for Cc1cc(O)ccc1Cl in this assay.
Reply | inactive

Ask | Returns: the outcome recorded for ClC1=C(Cl)[C@]2(Cl)[C@@H]3[C@H]4C[C@H]([C@@H]5O[C@H]45)[C@@H]3[C@@]1(Cl)C2(Cl)Cl in this assay.
Reply | active

Ask | Returns: the outcome recorded for CCC(C)(c1ccc(O)cc1)c1ccc(O)cc1 in this assay.
Reply | inactive

Ask | Returns: the outcome recorded for CCOC(=O)C(O)(c1ccc(Cl)cc1)c1ccc(Cl)cc1 in this assay.
Reply | inactive

* * *

- Read-out: Fatty acid synthase (Homo sapiens) (UniProt P49327)
- Sequence (P49327 whole entry, looked up): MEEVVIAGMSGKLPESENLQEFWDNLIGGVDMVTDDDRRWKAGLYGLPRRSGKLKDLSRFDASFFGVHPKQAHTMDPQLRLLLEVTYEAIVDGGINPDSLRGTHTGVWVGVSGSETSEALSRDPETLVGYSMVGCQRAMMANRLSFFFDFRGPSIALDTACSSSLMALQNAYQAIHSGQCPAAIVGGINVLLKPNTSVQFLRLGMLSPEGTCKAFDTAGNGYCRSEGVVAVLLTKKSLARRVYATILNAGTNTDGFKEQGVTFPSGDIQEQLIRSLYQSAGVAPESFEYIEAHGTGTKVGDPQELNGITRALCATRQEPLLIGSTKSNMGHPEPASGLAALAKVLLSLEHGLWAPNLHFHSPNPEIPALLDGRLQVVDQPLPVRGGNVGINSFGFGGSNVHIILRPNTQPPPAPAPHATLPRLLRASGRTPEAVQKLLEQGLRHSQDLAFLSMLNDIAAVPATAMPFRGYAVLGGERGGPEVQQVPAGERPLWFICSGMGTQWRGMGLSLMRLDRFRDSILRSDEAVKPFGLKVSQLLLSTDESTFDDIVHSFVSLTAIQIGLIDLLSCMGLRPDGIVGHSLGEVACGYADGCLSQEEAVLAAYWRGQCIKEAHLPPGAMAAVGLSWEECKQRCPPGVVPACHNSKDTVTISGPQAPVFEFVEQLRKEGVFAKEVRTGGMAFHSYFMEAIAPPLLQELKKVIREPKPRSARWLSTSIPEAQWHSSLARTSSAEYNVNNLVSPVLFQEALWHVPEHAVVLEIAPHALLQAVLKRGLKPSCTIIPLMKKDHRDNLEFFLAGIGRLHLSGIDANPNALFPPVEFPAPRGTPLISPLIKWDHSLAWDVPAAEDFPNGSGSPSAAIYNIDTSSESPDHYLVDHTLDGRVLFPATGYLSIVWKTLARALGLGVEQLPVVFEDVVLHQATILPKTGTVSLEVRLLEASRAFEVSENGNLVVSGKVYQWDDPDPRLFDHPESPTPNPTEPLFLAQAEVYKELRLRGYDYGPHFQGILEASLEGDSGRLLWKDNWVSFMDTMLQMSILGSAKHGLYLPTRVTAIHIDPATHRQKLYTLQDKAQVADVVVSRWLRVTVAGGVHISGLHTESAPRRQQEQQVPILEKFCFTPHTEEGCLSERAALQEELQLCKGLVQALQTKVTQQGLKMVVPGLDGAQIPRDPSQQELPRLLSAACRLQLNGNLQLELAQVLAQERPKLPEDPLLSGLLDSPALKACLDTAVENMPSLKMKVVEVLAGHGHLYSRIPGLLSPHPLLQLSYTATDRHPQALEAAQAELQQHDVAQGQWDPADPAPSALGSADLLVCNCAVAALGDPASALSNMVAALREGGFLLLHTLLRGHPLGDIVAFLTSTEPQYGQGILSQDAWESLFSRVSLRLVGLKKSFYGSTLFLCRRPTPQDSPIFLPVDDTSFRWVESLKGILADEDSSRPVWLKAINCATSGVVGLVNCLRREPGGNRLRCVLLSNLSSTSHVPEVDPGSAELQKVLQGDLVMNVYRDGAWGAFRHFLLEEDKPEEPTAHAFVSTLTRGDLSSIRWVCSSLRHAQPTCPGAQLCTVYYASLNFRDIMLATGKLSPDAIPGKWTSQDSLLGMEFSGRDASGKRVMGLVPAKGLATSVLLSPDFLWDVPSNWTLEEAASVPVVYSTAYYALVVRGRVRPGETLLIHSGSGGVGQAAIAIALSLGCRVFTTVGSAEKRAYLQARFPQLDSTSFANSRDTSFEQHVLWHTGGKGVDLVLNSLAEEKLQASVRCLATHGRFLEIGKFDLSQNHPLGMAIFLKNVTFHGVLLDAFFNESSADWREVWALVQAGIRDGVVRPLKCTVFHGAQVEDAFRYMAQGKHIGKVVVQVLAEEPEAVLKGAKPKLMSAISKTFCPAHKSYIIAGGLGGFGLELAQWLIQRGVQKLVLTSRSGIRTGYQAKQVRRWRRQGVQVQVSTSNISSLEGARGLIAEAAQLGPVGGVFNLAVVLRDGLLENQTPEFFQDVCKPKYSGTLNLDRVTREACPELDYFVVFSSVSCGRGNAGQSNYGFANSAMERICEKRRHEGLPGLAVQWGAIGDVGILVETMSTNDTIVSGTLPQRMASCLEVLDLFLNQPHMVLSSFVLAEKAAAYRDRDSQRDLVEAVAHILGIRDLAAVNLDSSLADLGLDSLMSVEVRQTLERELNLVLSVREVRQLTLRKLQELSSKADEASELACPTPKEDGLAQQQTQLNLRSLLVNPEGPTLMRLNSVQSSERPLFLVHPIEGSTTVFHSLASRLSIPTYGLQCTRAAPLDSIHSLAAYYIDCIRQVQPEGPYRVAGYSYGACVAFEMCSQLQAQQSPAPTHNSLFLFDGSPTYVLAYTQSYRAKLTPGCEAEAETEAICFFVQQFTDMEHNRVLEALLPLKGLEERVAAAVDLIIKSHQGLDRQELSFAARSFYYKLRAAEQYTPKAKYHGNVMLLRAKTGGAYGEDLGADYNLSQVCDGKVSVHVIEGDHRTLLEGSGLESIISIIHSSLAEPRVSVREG
- protocol-summary: LTEA_HepaRG_FASN: Life Technologies and Expression Analysis (LTEA) Assay for Fatty Acid Synthase (FASN) using HepaRG (AID 2283448)
- test-settings: mRNA level, 48 h; actives raise or lower the signal
The source made the active and inactive calls. Rule for the calls: active = hit-call score of the fitted dose curve at least 0.9, where 1 is the maximum; inactive = score below 0.9.
Parameter call: string, one of 1 (yes) = active, 0 (no) = inactive

[[record]]
compound = "CCCCCCCCCC[N+](C)(C)CCCCCCCCCC"
class_name = "1 (yes)"

[[record]]
compound = "CC(C)(c1ccccc1)c1ccc(O)cc1"
class_name = "0 (no)"

[[record]]
compound = "NS(=O)(=O)C(F)(F)C(F)(F)C(F)(F)C(F)(F)C(F)(F)C(F)(F)C(F)(F)C(F)(F)F"
class_name = "1 (yes)"

[[record]]
compound = "CCCCCCCCCc1ccc(O)cc1"
class_name = "0 (no)"

[[record]]
compound = "CCCN(CCC)N=O"
class_name = "0 (no)"

[[record]]
compound = "CCC(C)c1cc([N+](=O)[O-])cc([N+](=O)[O-])c1O (configuration not stated)"
class_name = "1 (yes)"

[[record]]
compound = "ClC(Cl)=C(c1ccc(Cl)cc1)c1ccc(Cl)cc1"
class_name = "1 (yes)"

[[record]]
compound = "O=C(NC(=O)c1cc(F)c(F)cc1Cl)Nc1cc(F)ccc1N1CCC(C(=O)O)CC1"
class_name = "0 (no)"


Ask | Returns: the outcome recorded for c1ccc(-c2ccccc2)cc1 in this assay.
Reply | 0 (no)

Ask | Returns: the outcome recorded for ClC1=C(Cl)[C@]2(Cl)[C@@H]3[C@@H](Cl)[C@H]4O[C@H]4[C@@H]3C1(Cl)C2(Cl)Cl in this assay.
Reply | 0 (no)

Ask | Returns: the outcome recorded for CC(C)C(=O)OCC(C)(C)C(OC(=O)C(C)C)C(C)C (configuration not stated) in this assay.
Reply | 0 (no)

Ask | Returns: the outcome recorded for CC#Cc1cc(C)nc(Nc2ccccc2)n1 in this assay.
Reply | 1 (yes)

* * *

- protocol-summary: Tanguay_ZF_120hpf_SNOU_legacy: (Legacy) Oregon State University Tanguay Lab 120 Hour Post-fertilization zebrafish Assay for Snout Malformation (AID 2283637)
Inconclusive results are not listed. Activity calls are given as the source filed them. Rule for the calls: active = hit-call score of the fitted dose curve at least 0.9, where 1 is the maximum; inconclusive = response in the unintended direction; inactive = score below 0.9.
Parameter call: string, one of true (1) = active, false (0) = inactive

[[record]]
entry_smiles = "COS(=O)(=O)OC"
class_name = "false (0)"

[[record]]
entry_smiles = "CCNc1nc(NC(C)C)nc(SC)n1"
class_name = "false (0)"

[[record]]
entry_smiles = "CCC(C)(CC)c1cc(NC(=O)c2c(OC)cccc2OC)on1"
class_name = "false (0)"


Ask | Returns: the outcome recorded for ClC1=C(Cl)[C@]2(Cl)[C@@H]3[C@H]4C[C@H]([C@@H]5O[C@H]45)[C@@H]3[C@@]1(Cl)C2(Cl)Cl in this assay.
Reply | false (0)

Ask | Returns: the outcome recorded for Cc1cc(-c2ccc(N)c(C)c2)ccc1N in this assay.
Reply | false (0)

Ask | Returns: the outcome recorded for O=S(=O)(O)C(F)(F)C(F)(F)C(F)(F)C(F)(F)C(F)(F)C(F)(F)F in this assay.
Reply | false (0)

Ask | Returns: the outcome recorded for Oc1c(Cl)c(Cl)c(Cl)c(Cl)c1Cl in this assay.
Reply | false (0)

Ask | Returns: the outcome recorded for CO/C=C(/C(=O)OC)c1ccccc1COc1cccc(C(F)(F)F)n1 in this assay.
Reply | true (1)

Ask | Returns: the outcome recorded for O=S(=O)(O)C(F)(F)C(F)(F)C(F)(F)C(F)(F)F in this assay.
Reply | false (0)

Ask | Returns: the outcome recorded for Cc1cccc(C)c1N in this assay.
Reply | false (0)

Ask | Returns: the outcome recorded for ClC1=C(Cl)[C@]2(Cl)[C@@H]3[C@@H](Cl)[C@H]4O[C@H]4[C@@H]3C1(Cl)C2(Cl)Cl in this assay.
Reply | false (0)
